tested on: L6; assay: Cytotoxicity against rat L6 cells after 70 hrs by alamar blue assay; type: cell-based; settings: L6, 70 h
# Lookup of reported IC50 keyed by entry

Example entries begin here.
Cl.Cl.Oc1ccc(C2=NCCN2)cc1-c1cn(-c2ccc(C3=NCCN3)cc2)nn1	> 190 µM
N=C(N)c1ccc(-c2cn(-c3ccc(C(=N)N)cc3O)nn2)cc1	> 216 µM
Cl.Cl.N=C(N)c1ccc(-n2cc(-c3cccc(C(=N)N)c3)nn2)cc1	8.6 µM
CC(C)NC(=N)c1cccc(-n2cc(-c3cc(C(=N)NC(C)C)ccc3O)nn2)c1	> 170 µM
CC(C)NC(=N)c1cccc(-c2cn(-c3cccc(C(=N)NC(C)C)c3)nn2)c1	> 184 µM
Cl.Cl.N=C(N)c1cccc(-n2cc(-c3cc(C(=N)N)ccc3O)nn2)c1	> 136 µM
Oc1cc(C2=NCCN2)ccc1-n1cc(-c2ccc(C3=NCCN3)cc2)nn1	> 198 µM
Cl.Cl.N=C(N)c1ccc(-n2cc(-c3cc(C(=N)N)ccc3O)nn2)cc1	> 219 µM

The reported value for "CC(C)NC(=N)c1ccc(-c2cn(-c3ccc(C(=N)NC(C)C)cc3O)nn2)cc1" in terms of IC50 is > 178 µM

Lab book: IC50 of "Cl.Cl.N=C(N)c1ccc(-c2cn(-c3ccc(C(=N)N)cc3)nn2)cc1" noted as 8.1 µM
